# collection of pIC50 values tested on c-Src(1-530) (Homo sapiens (Human))
# Sequence (P12931 whole entry, looked up): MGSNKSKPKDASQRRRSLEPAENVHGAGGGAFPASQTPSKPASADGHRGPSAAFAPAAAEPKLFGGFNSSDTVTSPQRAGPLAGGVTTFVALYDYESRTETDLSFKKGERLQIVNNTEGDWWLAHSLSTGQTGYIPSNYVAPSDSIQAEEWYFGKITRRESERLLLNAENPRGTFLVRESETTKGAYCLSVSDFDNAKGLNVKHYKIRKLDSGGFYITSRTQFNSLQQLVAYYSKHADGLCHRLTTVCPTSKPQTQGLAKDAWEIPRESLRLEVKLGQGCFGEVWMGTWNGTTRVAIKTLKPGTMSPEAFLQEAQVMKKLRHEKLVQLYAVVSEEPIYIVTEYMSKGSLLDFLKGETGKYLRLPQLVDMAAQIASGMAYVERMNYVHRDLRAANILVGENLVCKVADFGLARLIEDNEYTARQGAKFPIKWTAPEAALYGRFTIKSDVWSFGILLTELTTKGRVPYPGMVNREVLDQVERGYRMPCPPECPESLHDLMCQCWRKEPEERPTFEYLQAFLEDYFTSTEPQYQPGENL
pIC50 here is simply -log10 of the concentration when that concentration is written in mol/L.

These solved cases illustrate the format of a correct answer.
CCn1nc(C#Cc2cccc(C(=O)Nc3ccc(CN4CCN(C)CC4)c(C(F)(F)F)c3)c2)c2c(N)ncnc21 | 8.30
Cc1cn(-c2cc(NC(=O)c3ccc(C)c(C#Cc4nn(C(C)C)c5ncnc(N)c45)c3)cc(C(F)(F)F)c2)cn1 | 6.86
Cc1ccc(NC(=O)c2ccc(CN3CCN(C)CC3)c(C(F)(F)F)c2)cc1C#Cc1nn(C(C)C)c2ncnc(N)c12 | 8.15

Input line: Give pIC50 for this entry on c-Src(1-530) (Homo sapiens (Human)): `CCn1nc(C#Cc2cc(C(=O)Nc3ccc(CN4CCN(C)CC4)c(C(F)(F)F)c3)ccc2OC)c2c(N)ncnc21`
Output line: 7.23

Input line: Give pIC50 for this entry on c-Src(1-530) (Homo sapiens (Human)): `Cc1ccc(NC(=O)c2cccc(C(F)(F)F)c2)cc1C#Cc1nn(C(C)C)c2ncnc(N)c12`
Output line: 8.40

Input line: Give pIC50 for this entry on c-Src(1-530) (Homo sapiens (Human)): `CCn1nc(C#Cc2cc(C(=O)Nc3ccc(CN4CCN(C)CC4)c(C(F)(F)F)c3)ccc2O)c2c(N)ncnc21`
Output line: 5.50

Input line: Give pIC50 for this entry on c-Src(1-530) (Homo sapiens (Human)): `CCc1ccc(C(=O)Nc2ccc(CN3CCN(C)CC3)c(C(F)(F)F)c2)cc1C#Cc1nn(CC)c2ncnc(N)c12`
Output line: 7.08

###

target: UniProt P11362
Sequence (P11362 22-822): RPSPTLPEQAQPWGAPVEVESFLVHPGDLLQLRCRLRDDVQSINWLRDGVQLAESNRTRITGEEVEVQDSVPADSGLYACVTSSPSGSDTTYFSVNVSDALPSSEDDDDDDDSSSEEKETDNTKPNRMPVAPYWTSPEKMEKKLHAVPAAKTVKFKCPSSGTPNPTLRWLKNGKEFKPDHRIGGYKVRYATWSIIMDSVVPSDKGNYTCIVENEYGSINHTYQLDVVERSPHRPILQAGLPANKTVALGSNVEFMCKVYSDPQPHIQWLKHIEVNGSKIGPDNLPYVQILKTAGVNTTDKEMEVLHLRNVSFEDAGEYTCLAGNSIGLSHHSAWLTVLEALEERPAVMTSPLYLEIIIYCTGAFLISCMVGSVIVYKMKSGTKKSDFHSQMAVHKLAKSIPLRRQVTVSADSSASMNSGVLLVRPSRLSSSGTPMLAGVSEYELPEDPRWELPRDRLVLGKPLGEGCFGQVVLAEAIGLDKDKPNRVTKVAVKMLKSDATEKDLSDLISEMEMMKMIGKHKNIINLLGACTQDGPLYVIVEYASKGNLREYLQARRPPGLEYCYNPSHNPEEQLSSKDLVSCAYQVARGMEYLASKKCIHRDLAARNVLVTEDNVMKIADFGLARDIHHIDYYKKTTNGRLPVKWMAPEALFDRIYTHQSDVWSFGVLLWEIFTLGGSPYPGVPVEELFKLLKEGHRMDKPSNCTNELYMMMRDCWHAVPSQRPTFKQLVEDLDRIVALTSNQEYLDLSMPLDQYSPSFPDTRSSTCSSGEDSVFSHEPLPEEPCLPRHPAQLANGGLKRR
metric: pIC50
pIC50 here is simply -log10 of the concentration when that concentration is written in mol/L.

Input line: Tell me measured pIC50 for CCn1nc(C#Cc2cc(C(=O)Nc3ccc(CN4CCN(C)CC4)c(C(F)(F)F)c3)ccc2C)c2c(N)ncnc21 [Compound 3] please.
Output line: 8.52

###

target: EGFR (Homo sapiens (Human), UniProt P00533)
Sequence (P00533 25-1210): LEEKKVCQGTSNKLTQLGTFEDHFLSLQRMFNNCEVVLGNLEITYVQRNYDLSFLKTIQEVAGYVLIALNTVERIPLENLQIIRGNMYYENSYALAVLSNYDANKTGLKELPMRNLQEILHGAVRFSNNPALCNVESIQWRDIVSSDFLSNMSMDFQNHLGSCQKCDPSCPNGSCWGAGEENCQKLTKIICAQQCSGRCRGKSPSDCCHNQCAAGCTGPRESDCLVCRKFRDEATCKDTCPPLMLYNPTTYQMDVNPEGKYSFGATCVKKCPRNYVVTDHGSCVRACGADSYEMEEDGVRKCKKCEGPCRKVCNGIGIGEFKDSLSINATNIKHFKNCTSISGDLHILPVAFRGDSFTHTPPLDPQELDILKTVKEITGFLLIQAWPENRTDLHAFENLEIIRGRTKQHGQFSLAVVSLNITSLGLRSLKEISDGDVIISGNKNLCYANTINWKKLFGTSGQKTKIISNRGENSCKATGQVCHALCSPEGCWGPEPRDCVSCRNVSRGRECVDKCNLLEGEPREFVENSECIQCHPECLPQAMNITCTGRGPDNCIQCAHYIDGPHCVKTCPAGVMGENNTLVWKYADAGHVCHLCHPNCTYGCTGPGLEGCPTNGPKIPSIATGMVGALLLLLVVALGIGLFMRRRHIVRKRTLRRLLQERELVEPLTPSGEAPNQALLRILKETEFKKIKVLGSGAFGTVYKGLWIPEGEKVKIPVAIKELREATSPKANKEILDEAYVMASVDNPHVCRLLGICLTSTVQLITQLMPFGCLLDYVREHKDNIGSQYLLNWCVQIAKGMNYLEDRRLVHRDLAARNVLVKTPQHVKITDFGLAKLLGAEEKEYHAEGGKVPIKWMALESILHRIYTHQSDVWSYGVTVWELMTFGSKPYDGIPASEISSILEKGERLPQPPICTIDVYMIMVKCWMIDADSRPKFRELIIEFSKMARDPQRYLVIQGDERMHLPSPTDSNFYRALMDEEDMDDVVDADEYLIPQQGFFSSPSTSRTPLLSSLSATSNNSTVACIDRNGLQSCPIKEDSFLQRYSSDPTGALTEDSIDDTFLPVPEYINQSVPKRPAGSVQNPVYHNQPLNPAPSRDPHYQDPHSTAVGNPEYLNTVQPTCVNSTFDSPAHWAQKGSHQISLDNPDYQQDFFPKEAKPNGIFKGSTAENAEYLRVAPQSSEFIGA
metric: IC50
Put your answer as a value accompanied by its unit after it.

Input line: Give IC50 for this entry on EGFR (Homo sapiens (Human), UniProt P00533): CCn1nc(C#Cc2cc(C(=O)Nc3ccc(CN4CCN(C)CC4)c(C(F)(F)F)c3)ccc2C)c2c(N)ncnc21 [Compound 3]
Output line: 3.52 µM

###

As shown below, each of these compounds has a reported pIC50 value.
target: PDGFRα (Homo sapiens (Human))
Sequence (P16234 24-1089): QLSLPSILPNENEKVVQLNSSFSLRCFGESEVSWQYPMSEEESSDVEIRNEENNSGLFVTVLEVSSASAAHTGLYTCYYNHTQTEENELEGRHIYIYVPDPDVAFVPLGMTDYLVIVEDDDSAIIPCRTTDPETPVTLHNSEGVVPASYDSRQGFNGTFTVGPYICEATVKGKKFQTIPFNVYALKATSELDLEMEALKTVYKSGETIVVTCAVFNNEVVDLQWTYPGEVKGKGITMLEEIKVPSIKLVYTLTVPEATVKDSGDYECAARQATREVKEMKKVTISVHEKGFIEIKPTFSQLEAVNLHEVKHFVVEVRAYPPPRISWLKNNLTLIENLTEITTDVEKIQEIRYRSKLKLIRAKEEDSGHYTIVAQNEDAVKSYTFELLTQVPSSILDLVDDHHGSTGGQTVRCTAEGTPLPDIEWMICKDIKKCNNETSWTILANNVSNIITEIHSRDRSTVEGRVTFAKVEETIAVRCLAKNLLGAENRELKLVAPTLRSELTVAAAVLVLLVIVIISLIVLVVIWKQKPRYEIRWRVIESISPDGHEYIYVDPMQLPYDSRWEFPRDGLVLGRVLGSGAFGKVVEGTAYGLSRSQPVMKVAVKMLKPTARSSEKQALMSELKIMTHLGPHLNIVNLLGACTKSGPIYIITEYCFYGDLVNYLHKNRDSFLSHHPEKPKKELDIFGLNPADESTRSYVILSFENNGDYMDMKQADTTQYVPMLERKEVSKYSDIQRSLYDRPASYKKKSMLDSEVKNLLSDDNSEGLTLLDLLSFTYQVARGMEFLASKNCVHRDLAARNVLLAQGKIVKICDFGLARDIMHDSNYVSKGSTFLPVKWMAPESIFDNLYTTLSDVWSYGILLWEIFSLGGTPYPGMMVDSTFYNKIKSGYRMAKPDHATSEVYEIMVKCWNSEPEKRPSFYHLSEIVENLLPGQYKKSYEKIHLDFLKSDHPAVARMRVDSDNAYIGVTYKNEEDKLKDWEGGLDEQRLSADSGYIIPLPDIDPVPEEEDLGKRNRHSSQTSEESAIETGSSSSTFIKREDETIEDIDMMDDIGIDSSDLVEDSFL
pIC50 here is simply -log10 of the concentration when that concentration is written in mol/L.

Cc1ccc(NC(=O)c2cccc(C(F)(F)F)c2)cc1C#Cc1nn(C2CCN(C)CC2)c2ncnc(N)c12 [Compound 31] | 6.40

API: the following record is the query input.
Input line: Give pIC50 for this entry on PDGFRα (Homo sapiens (Human)): CCn1nc(C#Cc2cc(C(=O)Nc3ccc(CN4CCN(C)CC4)c(C(F)(F)F)c3)ccc2C)c2c(N)ncnc21 [Compound 3]
Output line: 6.05

###

Tested on: MV4-11
protocol: Cell proliferation inhibition assay (MTT)
Assay type: cell-based
stated.conditions: Homo sapiens, MV4-11, 72 h, read-out: Proliferation inhibitory activity IC50
metric: IC50 (µM)
Lab book: enter the figure in µM, no units written.

Input line: Give IC50 for this entry on MV4-11: `CCn1nc(C#Cc2cc(C(=O)Nc3ccc(CN4CCN(C)CC4)c(C(F)(F)F)c3)ccc2C)c2c(N)ncnc21`
Output line: 0.02
